System: CD2F1 mice, L1210 leukemia ip, survival T/C
Experiment: NCI In Vivo Anticancer Drug Screen. Data for tumor model L1210 Leukemia (intraperitoneal) in CD2F1 (CDF1) mice
Details: endpoint: mean survival time; dose: 6.25 mg/kg/injection; schedule: Q04DX002 (ip); vehicle: saline with Tween-80; higher = longer survival
Inconclusive results and toxic doses are left out.
Examples of compounds with documented T/C follow.

CC(=O)N=C1C=C(NC(C)=O)C(=O)c2ncccc21    95 % of control
CC(=O)OC1CCC2(C)C(CCC3(C)C2CCC2C4C5OC(=O)C4(CCC5(C)C)CCC23C)C1(C)C (stereo not given)    114 % of control
COc1ccc(N(C)c2ccc(C(=C3C=CC(=[N+](C)CCO)C=C3)c3ccc(N(C)CCO)cc3)cc2)cc1    108 % of control
CN1C(=O)CC(c2ccc(NC(=O)CI)cc2)C1=O (stereo not given)    92 % of control

Now let's try a different one.
Enquiry: Retrieve T/C measured for CCC[CH2][Sn]1([CH2]CCC)[N](S(=O)(=O)c2ccc(C)cc2)c2ccccc2[N]1S(=O)(=O)c1ccc(C)cc1 and print it.
Return: 102 % of control

----------
Listing: T/C of selected compounds
System: CD2F1 mice, L1210 leukemia ip, survival T/C
Assay: NCI In Vivo Anticancer Drug Screen. Data for tumor model L1210 Leukemia (intraperitoneal) in CD2F1 (CDF1) mice
Settings: endpoint: mean survival time; dose: 50.0 mg/kg/injection; schedule: Q04DX003 (ip); vehicle: saline; higher = longer survival
Inconclusive results and toxic doses are left out.

Take a look at these entries with their results.
CCCCOc1ccc(NC(=O)CCl)cc1    101 % of control
CCOC(=O)C(C(=O)OCC)[N+](=O)[O-]    102 % of control
C/C(=C\c1ccccc1)CCC(=O)O    100 % of control

Enquiry: Enter T/C (test system CD2F1 mice, L1210 leukemia ip, survival T/C) for N#CCCCC1(CCCC#N)OCCO1
Return: 100 % of control

Enquiry: Provide T/C, recorded with CD2F1 mice, L1210 leukemia ip, survival T/C, of ONc1ccccn1
Return: 98 % of control

----------
# T/C per entry
System: CD2F1 mice, L1210 leukemia ip, survival T/C
Assay: NCI In Vivo Anticancer Drug Screen. Data for tumor model L1210 Leukemia (intraperitoneal) in CD2F1 (CDF1) mice
Conditions: endpoint: mean survival time; dose: 100.0 mg/kg/injection; schedule: Q01DX001 (ip); vehicle: saline with Tween-80; higher = longer survival
Toxic doses and inconclusive results are not listed.

Cc1cc[n+](-c2c3c(nc4ccccc24)-c2ccccc2C(C)(C)C3)cc1    96 % of control
Cc1cc(C)c(NS(=O)(=O)c2ccccc2)c(C)n1    103 % of control
Fc1c(F)c(F)c(-c2nnc(-c3c(F)c(F)c(F)c(F)c3F)o2)c(F)c1F    96 % of control
CC1=C(c2ccccc2)C(c2ccccc2)c2ccccc21 (stereo not given)    94 % of control
Cc1nc2nc(N)[nH]c(=O)c2nc1C    95 % of control

Enquiry: Enter T/C (test system CD2F1 mice, L1210 leukemia ip, survival T/C) for CCOC(=O)N1CCc2nc3cc(OC)ccc3cc21
Return: 103 % of control

Enquiry: Enter recorded T/C with CD2F1 mice, L1210 leukemia ip, survival T/C for O=C(Cl)c1ccccc1/C=C/c1ccc([N+](=O)[O-])cc1 here.
Return: 105 % of control

Enquiry: Fill in: T/C on CD2F1 mice, L1210 leukemia ip, survival T/C, entry CC(=O)NCC(O)C(O)C(O)C(O)COC(=O)c1ccccc1 (stereo not given)
Return: 95 % of control

Enquiry: Give reported T/C for COC(=O)c1cccc(OCC(=O)Nc2ccccc2)c1 (CD2F1 mice, L1210 leukemia ip, survival T/C)
Return: 101 % of control

Enquiry: Look up and report measured T/C (CD2F1 mice, L1210 leukemia ip, survival T/C) for the following molecule: C[n+]1ccc(Nc2ccc(NC(=O)c3ccc(Nc4ccnc5ccc([N+](=O)[O-])cc45)cc3[N+](=O)[O-])cc2)cc1
Return: 96 % of control

----------
System: CD2F1 mice, L1210 leukemia ip, survival T/C
Test: NCI In Vivo Anticancer Drug Screen. Data for tumor model L1210 Leukemia (intraperitoneal) in CD2F1 (CDF1) mice
Conditions: endpoint: mean survival time; dose: 400.0 mg/kg/injection; schedule: Q01DX001 (ip); vehicle: saline with Tween-80
Inconclusive results and toxic doses are left out. How the source made its calls: active means survival T/C of 150% or more; inactive means T/C below 125% in these data.
Mark one answer only. Choices: active, inactive

c1ccc(N=Nn2c3ccccc3c3ccccc32)cc1    inactive
c1ccc(CN2CCC(Nc3ccccc3)(c3nnnn3C3CCCCC3)CC2)cc1    inactive
CC(Br)(C(=O)O)C1CCCCC1 (stereo not given)    inactive
CN(C)S(=O)(=O)C(C)(C)c1ccccc1    inactive

Enquiry: Dear all, I need the recorded test outcome for CN(c1ccccc1)c1ccc(N=Nc2nc3ccccc3s2)cc1 , thank you.
Return: inactive

Enquiry: Dear colleague, could you share the recorded outcome for O=C1c2ccccc2SCCC1C(O)c1ccccc1 (stereo not given) when you have a moment?
Return: inactive

Enquiry: Which outcome did this test record for the compound O=C1OC2(c3cc(I)c(O)c(I)c3Oc3c2cc(I)c(O)c3I)c2c(Cl)ccc(Cl)c21 ?
Return: inactive

Enquiry: Test call for this compound, please: O=C(CCCN1CCC2(CC1)CNC(=O)N2c1ccccc1)c1ccc(F)cc1
Return: inactive

Enquiry: What was the test verdict on COc1ccc(C(O)(c2ccccc2)C(OC(=O)c2cc([N+](=O)[O-])cc([N+](=O)[O-])c2)c2ccccc2)cc1 (stereo not given) ?
Return: inactive

Enquiry: Per the assay record, what outcome was assigned to Nc1nnc(Cl)s1 ?
Return: inactive

Enquiry: Fill in: this test's call for O=C1C(=O)c2ccccc2C(O)=C1CNCCO is ___
Return: inactive

Enquiry: // return assay outcome for c1ccc(C2Nc3ccccc3NC2c2ccccc2)cc1 (stereo not given)
Return: inactive

Enquiry: Any idea what this test logged for Oc1ccccc1/C=N/c1nc(-c2ccccc2)cs1 ?
Return: inactive

Enquiry: Hi team, can someone confirm the assay call for Nc1ncnc2c1ncn2CCC(=O)O ?
Return: inactive

----------
Property: T/C; scope: individual compounds
Test system: CD2F1 mice, L1210 leukemia ip, survival T/C
Assay: NCI In Vivo Anticancer Drug Screen. Data for tumor model L1210 Leukemia (intraperitoneal) in CD2F1 (CDF1) mice
Conditions: endpoint: mean survival time; dose: 200.0 mg/kg/injection; schedule: Q04DX003 (ip); vehicle: Klucel (hydroxypropylcellulose) (HPC); higher = longer survival
Inconclusive results and toxic doses are left out.

O=C1CSc2ccccc2N1CCN1C(=O)CSc2ccccc21    86 % of control
O=C1/C(=C/c2ccc(Cl)c(Cl)c2)CCC/C1=C\c1ccc(Cl)c(Cl)c1    100 % of control
CC(=O)C1CCC2C3CC=C4CC(n5cc(F)c(=O)[nH]c5=O)CCC4(C)C3CCC12C (centres undefined)    91 % of control

Consider the additional compound presented here.
Enquiry: Query T/C for Cc1ccc(S(=O)(=O)Nc2ccc([N+](=O)[O-])cc2O)cc1
Return: 94 % of control

----------
System: CD2F1 mice, L1210 leukemia ip, survival T/C
Assay: NCI In Vivo Anticancer Drug Screen. Data for tumor model L1210 Leukemia (intraperitoneal) in CD2F1 (CDF1) mice
Details: endpoint: mean survival time; dose: 400.0 mg/kg/injection; schedule: Q04DX003 (ip); vehicle: other; higher = longer survival
Inconclusive results and toxic doses are left out.
quantity kind: T/C

# example entries with known answers
Cc1ccc(S(=O)(=O)N/N=C\c2cccnc2)cc1    98 % of control
CCCC(=O)c1c(C)cc(C)cc1C    98 % of control
CCCCNC(C)(C)C(SS)c1ccc(C(F)(F)F)cc1 (stereo unspecified)    86 % of control

Enquiry: Identify T/C associated with the molecule C1CC2CC1C1OC21 (stereo unspecified)
Return: 91 % of control

Enquiry: Read the entry CCCCCCCCCCCC(=O)c1ccccc1 and write its reported T/C.
Return: 92 % of control

Enquiry: Complete the entry with T/C for Nc1cccc2cn[nH]c12
Return: 101 % of control

----------
System: CD2F1 mice, L1210 leukemia ip, survival T/C
Experiment: NCI In Vivo Anticancer Drug Screen. Data for tumor model L1210 Leukemia (intraperitoneal) in CD2F1 (CDF1) mice
Conditions: endpoint: mean survival time; dose: 12.5 mg/kg/injection; schedule: Q01DX005 (ip); vehicle: distilled water + Tween-80; higher = longer survival
Toxic doses and inconclusive results are not listed.
quantity kind: T/C

# count of solved cases: 3
Nc1ccn(C2CC3[O][Sn]([c]4ccccc4)([c]4ccccc4)[O]CC3O2)c(=O)n1 (centres undefined)    93 % of control
CC1OC(n2ncc(=O)[nH]c2=O)C(O)C(O)C1O (centres undefined)    105 % of control
CC(=O)OC1C(C)OC(n2ncc(=O)[nH]c2=O)C(OC(C)=O)C1OC(C)=O (centres undefined)    103 % of control

Next up:
Enquiry: Query T/C for Nc1cc2c(ncn2C2OC(CO)C(O)C2O)c(=O)n1N (centres undefined)
Return: 96 % of control
